# measurement_target: UniProt P35968
# Sequence (P35968 20-1356): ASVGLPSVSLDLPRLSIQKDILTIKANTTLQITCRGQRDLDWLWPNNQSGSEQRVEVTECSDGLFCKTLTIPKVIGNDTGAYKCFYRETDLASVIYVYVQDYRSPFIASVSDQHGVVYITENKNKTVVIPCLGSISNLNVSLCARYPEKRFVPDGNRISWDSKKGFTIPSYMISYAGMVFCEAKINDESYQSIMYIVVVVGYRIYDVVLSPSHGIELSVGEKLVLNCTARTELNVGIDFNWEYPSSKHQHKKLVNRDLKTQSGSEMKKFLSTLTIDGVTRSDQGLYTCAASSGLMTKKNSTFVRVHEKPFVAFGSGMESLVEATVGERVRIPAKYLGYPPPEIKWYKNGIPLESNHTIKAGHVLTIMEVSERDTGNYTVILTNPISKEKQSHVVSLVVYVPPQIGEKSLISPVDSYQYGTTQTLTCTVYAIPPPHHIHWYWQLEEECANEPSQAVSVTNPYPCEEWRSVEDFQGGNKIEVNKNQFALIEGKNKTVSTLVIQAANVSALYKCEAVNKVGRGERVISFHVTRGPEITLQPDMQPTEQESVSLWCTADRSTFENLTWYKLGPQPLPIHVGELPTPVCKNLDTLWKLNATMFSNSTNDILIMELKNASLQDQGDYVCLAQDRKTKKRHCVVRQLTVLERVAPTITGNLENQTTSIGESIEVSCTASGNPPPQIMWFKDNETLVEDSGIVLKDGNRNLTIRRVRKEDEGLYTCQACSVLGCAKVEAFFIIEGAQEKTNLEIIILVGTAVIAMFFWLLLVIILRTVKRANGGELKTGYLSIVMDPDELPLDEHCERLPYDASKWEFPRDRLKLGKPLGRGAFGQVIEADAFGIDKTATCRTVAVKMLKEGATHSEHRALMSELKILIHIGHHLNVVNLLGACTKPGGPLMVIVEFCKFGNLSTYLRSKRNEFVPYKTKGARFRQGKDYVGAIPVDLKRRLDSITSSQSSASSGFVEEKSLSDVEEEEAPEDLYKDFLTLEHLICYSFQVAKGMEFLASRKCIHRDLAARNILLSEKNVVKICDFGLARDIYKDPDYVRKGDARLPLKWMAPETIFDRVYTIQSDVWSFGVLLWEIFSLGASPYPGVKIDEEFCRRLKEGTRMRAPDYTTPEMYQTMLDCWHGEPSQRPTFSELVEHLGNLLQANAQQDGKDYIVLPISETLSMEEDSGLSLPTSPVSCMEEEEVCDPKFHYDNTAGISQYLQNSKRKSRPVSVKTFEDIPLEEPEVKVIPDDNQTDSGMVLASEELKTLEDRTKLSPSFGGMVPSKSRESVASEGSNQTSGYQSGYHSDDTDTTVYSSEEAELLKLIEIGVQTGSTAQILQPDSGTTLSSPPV
# procedure_details: Inhibitory activity against KDR phosphorylation by ELISA (VEGF-stimulated NIH 3T3 cells expressing human KDR)
# condition_details: VEGF 100 ng/ml, compound 1 hr, read-out: IC50 (inhibition of KDR phosphorylation)
Where a name gives a salt, the structure may show the parent alone.
value_type: pIC50
// pIC50 is dimensionless: -log10 of concentration (M)

Example entries and their recorded answers appear below.
{"compound": "COc1cc2nccc(Oc3ccc(NC(=O)Nc4ncc(C)s4)c(F)c3)c2cc1OC [Ex. 21, hydrochloride]", "reported_measurement": 9.40}
{"compound": "COc1cc2nccc(Oc3ccc(NC(=O)Nc4nnc(C)s4)c(F)c3)c2cc1OC [Ex. 58]", "reported_measurement": 7.44}
{"compound": "COc1cc2nccc(Oc3ccc(NC(=O)Nc4ccon4)cc3Cl)c2cc1OC [Ex. 1]", "reported_measurement": 8.64}

Attention now shifts to the item below.
Ask: Look up pIC50: COc1cc2nccc(Oc3ccc(NC(=O)Nc4nnc(C(F)(F)F)s4)cc3F)c2cc1OC [Ex. 52]
Reply: 7.89

Provenance of the data: patent US7211587B2
